system: HT29 colon; assay: NCI-60 one-dose screen, 48 h (100 = growth as untreated, 0 = no growth, -100 = all killed); settings: 10 µM unless noted
The panel holds about 83,000 compounds, 20% with a hit somewhere; the sample as a whole holds those more often.
value.kind: growth (%)

>  <molecule>
CN(C)c1ccnc(CNCCSC2(c3ccc(C(F)(F)F)cc3)c3ccccc3CCc3ccccc32)c1

>  <system>
HT29 colon

>  <value.kind>
growth

>  <measured>
-65.9

$$$$
>  <molecule>
CC12CC[C@@H]3[C@]4(C)COC(c5cn[nH]c5-c5ccc(Cl)cc5)O[C@@H]4CC[C@@]3(C)[C@@H]1CC(C1=CCOC1=O)O2 (some centres not stated)

>  <system>
HT29 colon

>  <value.kind>
growth

>  <measured>
22

$$$$
>  <molecule>
C=C1CCC2C3(C)COC(c4ccccc4)OC3CCC2(C)C1CC(Sc1ccccc1)C1=CCOC1=O (configuration not stated)

>  <system>
HT29 colon

>  <value.kind>
growth

>  <measured>
13.8

$$$$
>  <molecule>
COc1ccc2[nH]c(=O)c(CSc3nccc(-c4ccc(OC)c(OC)c4)n3)cc2c1

>  <system>
HT29 colon

>  <value.kind>
growth

>  <measured>
16.2

$$$$
>  <molecule>
O=c1[nH]c2ccc(Cl)cc2cc1CSc1nccc(-c2ccc(Cl)cc2)n1

>  <system>
HT29 colon

>  <value.kind>
growth

>  <measured>
67.7

$$$$
>  <molecule>
CCCCSc1nc(NCCc2c[nH]c3ccccc23)c(C#N)c(-c2ccccc2)n1

>  <system>
HT29 colon

>  <value.kind>
growth

>  <measured>
1.16

$$$$
>  <molecule>
Nc1nnc(-c2c[nH]c3ncc(Br)cc23)c(-c2c[nH]c3ccc(F)cc23)n1

>  <system>
HT29 colon

>  <value.kind>
growth

>  <measured>
21.8

$$$$
>  <molecule>
CC(=O)OC[C@@]1(C)C2CC[C@]3(C)C(CC=C4C5CC(C)(C)CC[C@]5(C(=O)Nc5ccc(C)cc5)CC[C@]43C)[C@@]2(C)C[C@@H](OC(C)=O)[C@@H]1OC(C)=O (some centres not stated)

>  <system>
HT29 colon

>  <value.kind>
growth

>  <measured>
30.6

$$$$
>  <molecule>
CCOP(=O)(OCCCl)c1nc(-c2ccc(C)cc2)oc1NCc1ccccc1 (configuration not stated)

>  <system>
HT29 colon

>  <value.kind>
growth

>  <measured>
81.7

$$$$
>  <molecule>
O=C(Cn1c(/C=C/c2ccccc2)nc2ccccc2c1=O)Nc1ccccc1

>  <system>
HT29 colon

>  <value.kind>
growth

>  <measured>
98.5

$$$$
>  <molecule>
CC1(C)CC[C@]2(C(=O)O)CC[C@]3(C)C(=CCC4[C@@]5(C)C[C@@H](O)[C@@H]6OC(c7ccco7)OC[C@@]6(C)C5CC[C@]43C)C2C1 (some centres not stated)

>  <system>
HT29 colon

>  <value.kind>
growth

>  <measured>
21.3

$$$$
>  <molecule>
CN(C)c1nc(NCCNS(=O)(=O)c2ccc(C3=Nc4c(N)nc(N)nc4NC(c4ccc(F)cc4)C3)cc2)nc(Nc2ccc(F)cc2)n1 (configuration not stated)

>  <system>
HT29 colon

>  <value.kind>
growth

>  <measured>
10

$$$$
>  <molecule>
CC(=O)NNc1ccc2nnc(-c3ccccc3)n2n1

>  <system>
HT29 colon

>  <value.kind>
growth

>  <measured>
129

$$$$
>  <molecule>
O=C(Nc1ccc(C(F)(F)F)cc1)Nc1ccc2oc(=O)ccc2c1

>  <system>
HT29 colon

>  <value.kind>
growth

>  <measured>
9.84

$$$$
>  <molecule>
S=C(NCCc1ccccc1)Nc1ccc(OCc2nc3ccccc3[nH]2)cc1

>  <system>
HT29 colon

>  <value.kind>
growth

>  <measured>
108

$$$$
>  <molecule>
Cc1cc2nc3c4ccccc4n(CCNCCN(C)C)c3nc2cc1C

>  <system>
HT29 colon

>  <value.kind>
growth

>  <measured>
-40.1

$$$$
>  <molecule>
COCOc1cc2oc(C(=O)N[C@@H](Cc3ccccc3)C(O)C(=O)NCc3ccccc3)c(C)c(=O)c2cc1OCOC (some centres not stated)

>  <system>
HT29 colon

>  <value.kind>
growth

>  <measured>
77.5

$$$$
>  <molecule>
COc1cc(/C=C/C(=O)c2ccc(C)cc2)ccc1Oc1nc(Nc2ccc(F)cc2)nc(N(C)C)n1

>  <system>
HT29 colon

>  <value.kind>
growth

>  <measured>
44.1

$$$$
>  <molecule>
CN1CCc2c(sc3ncnc(N/N=C/c4ccc(Cl)cc4Cl)c23)C1

>  <system>
HT29 colon

>  <value.kind>
growth

>  <measured>
-88.4

$$$$
>  <molecule>
CN(C)CCn1c2ccccc2c2nc3cc4ccccc4cc3nc21

>  <system>
HT29 colon

>  <value.kind>
growth

>  <measured>
-50.4

$$$$
>  <molecule>
COc1ccc(C(=O)/C=C/c2ccc(OCc3ccccc3)c(OC)c2)cc1OC

>  <system>
HT29 colon

>  <value.kind>
growth

>  <measured>
15.1

$$$$
>  <molecule>
N#Cc1c(-c2cccc(Cl)c2Cl)cc(-c2ccc3ccccc3c2)[nH]c1=O

>  <system>
HT29 colon

>  <value.kind>
growth

>  <measured>
121

$$$$
>  <molecule>
Cc1cc2nc3c4ccccc4n(CC4=NCCN4)c3nc2cc1C

>  <system>
HT29 colon

>  <value.kind>
growth

>  <measured>
-74.3

$$$$
>  <molecule>
N#Cc1c(NCc2ccccc2)n[nH]c1Nc1ccccc1

>  <system>
HT29 colon

>  <value.kind>
growth

>  <measured>
84.3

$$$$
>  <molecule>
Cc1ccc(-c2nc(C#N)c(S(=O)(=O)N3CCN(S(=O)(=O)c4ccc(Cl)cc4)CC3)o2)cc1

>  <system>
HT29 colon

>  <value.kind>
growth

>  <measured>
117

$$$$
>  <molecule>
COc1ccc(-c2cc(C(=O)NCc3ccccc3)nn2-c2ccc(S(C)(=O)=O)cc2)cc1OC

>  <system>
HT29 colon

>  <value.kind>
growth

>  <measured>
102

$$$$
>  <molecule>
O=c1onc(-c2cc3ccccc3nc2Cl)n1-c1cccc2ccccc12

>  <system>
HT29 colon

>  <value.kind>
growth

>  <measured>
39.6

$$$$
>  <molecule>
Cc1ccc(NC(=O)CN2CCN(c3ncnc4c3cnn4-c3ccccc3)CC2)cc1

>  <system>
HT29 colon

>  <value.kind>
growth

>  <measured>
93.8

$$$$
>  <molecule>
CC(C)Sc1nc(NCCc2c[nH]c3ccccc23)c(C#N)c(-c2ccccc2)n1

>  <system>
HT29 colon

>  <value.kind>
growth

>  <measured>
-30.6

$$$$
>  <molecule>
COc1ccc(C(=O)/C=C/c2ccc(OCc3ccc(F)cc3)c(OC)c2)cc1OC

>  <system>
HT29 colon

>  <value.kind>
growth

>  <measured>
10.7

$$$$
>  <molecule>
COc1ccc(C2=NN(c3ccccc3)C(c3ccc(OCc4ccccc4)c(OC)c3)C2)cc1OC (configuration not stated)

>  <system>
HT29 colon

>  <value.kind>
growth

>  <measured>
86.6

$$$$
>  <molecule>
Cn1cc(-c2nnc(N)nc2-c2c[nH]c3ccc(F)cc23)c2cccnc21

>  <system>
HT29 colon

>  <value.kind>
growth

>  <measured>
16.8

$$$$
>  <molecule>
CN(C)CCOc1ccc(C(=O)C2[C@H](c3ccc(Cl)cc3)[C@@H](c3ccccc3)NC23C(=O)Nc2ccccc23)cc1 (some centres not stated)

>  <system>
HT29 colon

>  <value.kind>
growth

>  <measured>
-69.3

$$$$
>  <molecule>
COc1cc2c(c(OC)c1OC)C(=O)CC(c1cccc(NC(=O)c3cccc(NC(=O)[C@H](C)NC(=O)OC(C)(C)C)c3)c1)O2 (some centres not stated)

>  <system>
HT29 colon

>  <value.kind>
growth

>  <measured>
62.2

$$$$
>  <molecule>
O=C(Cn1nc(-c2ccccc2)ccc1=O)N/N=C/c1ccc(N2CCOCC2)cc1

>  <system>
HT29 colon

>  <value.kind>
growth

>  <measured>
113

$$$$
>  <molecule>
CN1CCN(c2ccc3c(c2)nc(NNC(=O)c2cnccn2)c2cccn23)CC1

>  <system>
HT29 colon

>  <value.kind>
growth

>  <measured>
6.95

$$$$
>  <molecule>
O=C(O)c1ccc(-c2ccc(/C=N/NC(=O)c3[nH]c4ccc(Br)cc4c3-c3ccccc3)s2)cc1

>  <system>
HT29 colon

>  <value.kind>
growth

>  <measured>
-7.12

$$$$
